Origin of measurements: paper PMC11742250

assay protocol: in vitro
Assay type: in vitro ADME, human
stated conditions: human, Caco-2, pH 9, Papp × 10^−4 (cm/s) (B→A)
metric name: Papp B→A at 180 min, 100 μg/mL (×10⁻⁶ cm/s)

compound	metric name	obs value
O=C(/C=C/c1ccc(O)cc1)OC[C@H]1O[C@@H](Oc2c(-c3ccc(O)cc3)oc3cc(O)cc(O)c3c2=O)[C@H](O)[C@@H](O)[C@@H]1O [Tiliroside]	Papp B→A at 180 min, 100 μg/mL	54

----------
System: P-gp
assay protocol: in vitro
Type: in vitro ADME, human
stated conditions: human, Caco-2, Papp × 10^−4 (cm/s) (B→A)

compound	target system	Papp B→A at 180 min, 150 μg/mL, ×10⁻⁶ cm/s
O=C(/C=C/c1ccc(O)cc1)OC[C@H]1O[C@@H](Oc2c(-c3ccc(O)cc3)oc3cc(O)cc(O)c3c2=O)[C@H](O)[C@@H](O)[C@@H]1O [Tiliroside]	P-gp	276
